study-system: UniProtKB Q08345
Sequence (Q08345 19-913): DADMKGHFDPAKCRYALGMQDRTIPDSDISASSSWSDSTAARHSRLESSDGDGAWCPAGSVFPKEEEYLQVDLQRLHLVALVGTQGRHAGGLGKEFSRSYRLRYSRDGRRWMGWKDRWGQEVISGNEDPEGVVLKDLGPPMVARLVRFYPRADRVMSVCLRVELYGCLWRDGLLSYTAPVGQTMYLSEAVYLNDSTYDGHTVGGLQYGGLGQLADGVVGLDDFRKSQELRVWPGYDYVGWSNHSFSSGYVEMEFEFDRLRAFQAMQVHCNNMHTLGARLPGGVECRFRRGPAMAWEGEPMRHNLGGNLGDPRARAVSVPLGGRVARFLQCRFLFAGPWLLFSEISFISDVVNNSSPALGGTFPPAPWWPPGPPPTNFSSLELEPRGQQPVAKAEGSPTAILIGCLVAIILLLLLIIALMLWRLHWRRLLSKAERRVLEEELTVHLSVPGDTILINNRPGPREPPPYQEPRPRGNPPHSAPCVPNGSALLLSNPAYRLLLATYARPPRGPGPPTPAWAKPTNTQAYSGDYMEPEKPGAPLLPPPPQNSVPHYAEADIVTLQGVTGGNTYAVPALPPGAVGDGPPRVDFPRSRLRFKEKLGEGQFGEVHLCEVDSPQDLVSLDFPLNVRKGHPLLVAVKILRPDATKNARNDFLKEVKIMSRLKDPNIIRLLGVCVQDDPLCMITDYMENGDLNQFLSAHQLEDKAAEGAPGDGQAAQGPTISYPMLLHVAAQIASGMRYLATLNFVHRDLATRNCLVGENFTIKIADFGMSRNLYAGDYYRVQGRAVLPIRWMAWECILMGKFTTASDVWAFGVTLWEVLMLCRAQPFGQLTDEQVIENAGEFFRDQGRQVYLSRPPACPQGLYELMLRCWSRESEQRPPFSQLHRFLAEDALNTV
protocol-notes: Measurement of DDR1 enzyme inhibitory activity (phosphorylation of biotinylated peptide, time-resolved fluorescence)
Assay type: biochemical
condition-summary: human DDR1 enzyme, biotinylated peptide phosphorylation; read-out: DDR1 enzyme inhibition assay IC50
// reported log10 IC50 per item
The figures below represent log10 of IC50, where IC50 is stated in nM.

1) CC#Cc1ccc2ncn(Nc3cc(Cl)ccc3S(=O)(=O)CC)c(=O)c2c1 [Compound A-65]    3.49
2) CCSc1ccc(Cl)cc1Nn1cnc2cc(Br)c(C)cc2c1=O [Compound A-5]    2.94
3) CCSc1ccc(Cl)cc1Cn1cnc2cc(C)c(Br)cc2c1=O [Compound E-5]    2.98
4) CCSc1ccc(Cl)cc1Nn1cnc2ccc(C(F)(F)F)cc2c1=O [Compound A-9]    2.26
5) CCOc1ccc(S(=O)(=O)CC)c(Nn2cnc3c(Br)cc(C(F)(F)F)cc3c2=O)c1 [Compound C-32]    3.29

Record CCS(=O)(=O)c1ccc(C#N)cc1Nn1cnc2cc(CN3CCOCC3)c(OC(F)(F)F)cc2c1=O [Compound G-8] , field log10 IC50: 2.83

Value of measured log10 IC50 for the entry CCSc1ccc(Cl)cc1Nn1cnc2ccc([N+](=O)[O-])cc2c1=O [Compound A-56] : 2.00

Lab note: C=C(C)c1ccc2ncn(Nc3cc(Cl)ccc3S(=O)(=O)CC)c(=O)c2c1 [Compound A-62] gave log10 IC50 of 2.04

Kindly note the recorded log10 IC50 for CCSc1ccc(Cl)cc1Nn1cnc2cc(OC)c(OC)cc2c1=O [Compound A-38] , which is 2.68

# molecule CCS(=O)(=O)c1ccc(Cl)cc1Nn1cnc2ncc(C(F)(F)F)cc2c1=O [Compound A-24] ; its log10 IC50 = 2.28

Consider CCS(=O)(=O)c1ccc(Cl)cc1Nn1cnc2ccc(S(C)(=O)=O)cc2c1=O [Compound A-49] . Its measured log10 IC50 is 3.33

// log10 IC50 value for CCSc1ccc(C#N)cc1Nn1cnc2ccc(OC(F)(F)F)cc2c1=O [Compound C-15] : 2.32
